Source of measurements: patent US20230348426A1

Target: human FPR1 (Homo sapiens (Human))
Sequence (P21462 whole entry): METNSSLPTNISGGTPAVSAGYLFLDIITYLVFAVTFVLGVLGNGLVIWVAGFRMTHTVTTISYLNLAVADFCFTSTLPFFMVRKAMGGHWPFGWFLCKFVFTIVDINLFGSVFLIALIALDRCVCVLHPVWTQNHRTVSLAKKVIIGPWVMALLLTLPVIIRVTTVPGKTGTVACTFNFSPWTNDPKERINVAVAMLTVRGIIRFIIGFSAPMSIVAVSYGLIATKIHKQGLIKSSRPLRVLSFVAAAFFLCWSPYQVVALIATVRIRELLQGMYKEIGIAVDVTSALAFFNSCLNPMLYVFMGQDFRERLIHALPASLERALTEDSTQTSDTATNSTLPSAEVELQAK
Assay: FPR1 cyclic adenosine monophosphate (cAMP) assay
Conditions: CHO cells overexpressing human FPR1; forskolin 10 µM; inhibition of cAMP production; read-out: hFPR1 cAMP EC50
assayReadout: pEC50
Note on pEC50: it is the negative log10 of concentration, concentration in mol/L.

The examples below pair each entry with its known result.
molecule: COc1ccc([C@@H]2CN(c3c(C)ccn(C4CCC4)c3=O)C(=O)[C@H]2NC(=O)c2ccc(OC(F)F)cc2)cc1
targetDesc: human FPR1 (Homo sapiens (Human))
pEC50: 9.70

molecule: COc1ccc([C@@H]2CN(c3c(C)ccn(CCC(F)(F)F)c3=O)C(=O)[C@H]2NC(=O)c2ccc(OC(F)F)cc2)c(F)c1
targetDesc: human FPR1 (Homo sapiens (Human))
pEC50: 8.52

molecule: COc1cc(F)c([C@@H]2CN(c3ccnn(CC(O)C(F)(F)F)c3=O)C(=O)[C@H]2NC(=O)c2ccc(OC(F)F)cc2)c(F)c1 (stereo partly drawn)
targetDesc: human FPR1 (Homo sapiens (Human))
pEC50: 7.70

molecule: COc1cc(F)c([C@@H]2CN(c3ncccc3C#N)C(=O)[C@H]2NC(=O)c2ccc(OC(F)(F)F)cc2)c(F)c1
targetDesc: human FPR1 (Homo sapiens (Human))
pEC50: 5.96

molecule: COc1cc(F)c([C@@H]2CN(c3ncn(CC(F)F)n3)C(=O)[C@H]2NC(=O)c2ccc(Cl)cc2)c(F)c1
targetDesc: human FPR1 (Homo sapiens (Human))
pEC50: 6.09

molecule: COc1cc(F)c([C@@H]2CN(c3cccn(CC(OC)C(F)(F)F)c3=O)C(=O)[C@H]2NC(=O)c2ccc(OC(F)(F)F)cc2)c(F)c1 (stereo partly drawn) [Example 147]
targetDesc: human FPR1 (Homo sapiens (Human))
pEC50: 8.66

molecule: COc1cc(F)c([C@@H]2CN(c3cccn(C)c3=O)C(=O)[C@H]2NC(=O)c2ccc(Cl)cc2)c(F)c1
targetDesc: human FPR1 (Homo sapiens (Human))
pEC50: 6.24

# ---- query molecule ----
Just so you know, measured pEC50 for COc1cc(F)c([C@@H]2CN(c3nc(C4CCN(C)CC4)ccc3F)C(=O)[C@H]2NC(=O)c2ccc(OC(F)F)cc2)c(F)c1 came out at 5.70
